molecular target: SIRT2 (Homo sapiens, UniProt Q8IXJ6); test: SIRT2 binding competition assay using Cy3-myristoyl-H4K16 peptide; details: 50 nM Cy3 peptide, 2.5 μM SIRT2, 23°C; read-out: IC50 for displacement of Cy3-myristoyl-H4K16 peptide from SIRT2
Sequence (Q8IXJ6 34-356): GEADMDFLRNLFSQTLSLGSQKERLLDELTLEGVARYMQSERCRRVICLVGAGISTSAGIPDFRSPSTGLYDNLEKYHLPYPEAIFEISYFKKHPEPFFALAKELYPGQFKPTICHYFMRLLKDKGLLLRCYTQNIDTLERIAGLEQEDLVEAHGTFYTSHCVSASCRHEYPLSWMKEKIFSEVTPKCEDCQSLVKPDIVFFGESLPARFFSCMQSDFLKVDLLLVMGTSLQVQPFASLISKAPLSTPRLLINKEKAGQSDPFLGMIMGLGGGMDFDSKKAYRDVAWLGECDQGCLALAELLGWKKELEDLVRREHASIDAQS
MEASURED_QUANTITY: pIC50
FYI, pIC50 means -log10 of a concentration in mol per litre.

What does the data say about its pIC50? Entry: O=c1/c(=C\c2cc(Br)cc(I)c2O)sc2nc3ccccc3n12
4.80

----------
Would you mind telling me the reported Kd of each entry?
target: SIRT2 (Homo sapiens, UniProt Q8IXJ6); experiment: 1-aminoanthracene binding competition assay, SIRT2 alone; settings: read-out: SIRT2 Kd

# query: Kd of entry Oc1ccc(Br)cc1I
68 µM

Param item = CCCCCc1ccc(C)cc1O ; retrieve measured Kd.
73 µM

----------
Target sequence: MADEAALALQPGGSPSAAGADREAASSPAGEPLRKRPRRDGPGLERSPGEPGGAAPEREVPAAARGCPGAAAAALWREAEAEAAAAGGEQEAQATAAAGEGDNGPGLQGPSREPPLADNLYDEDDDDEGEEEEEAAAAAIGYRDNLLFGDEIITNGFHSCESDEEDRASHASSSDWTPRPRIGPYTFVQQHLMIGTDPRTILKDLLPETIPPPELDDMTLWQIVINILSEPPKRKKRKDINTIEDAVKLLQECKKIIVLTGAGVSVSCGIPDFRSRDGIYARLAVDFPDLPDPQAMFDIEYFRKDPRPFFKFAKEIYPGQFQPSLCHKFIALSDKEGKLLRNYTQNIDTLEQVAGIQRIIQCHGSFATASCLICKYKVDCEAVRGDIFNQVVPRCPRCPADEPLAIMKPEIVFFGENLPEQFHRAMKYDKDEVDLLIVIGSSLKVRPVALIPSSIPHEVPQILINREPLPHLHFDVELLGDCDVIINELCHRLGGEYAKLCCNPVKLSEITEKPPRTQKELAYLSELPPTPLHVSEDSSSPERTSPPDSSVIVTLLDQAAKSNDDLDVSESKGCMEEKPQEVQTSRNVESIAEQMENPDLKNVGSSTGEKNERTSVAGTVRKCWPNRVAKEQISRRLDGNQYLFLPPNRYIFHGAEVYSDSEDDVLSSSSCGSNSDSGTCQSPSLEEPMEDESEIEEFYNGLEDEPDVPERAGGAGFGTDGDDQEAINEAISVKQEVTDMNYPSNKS
MEASURED_QUANTITY: IC50 (µM)
// note: answer is a bare numeric in µM

If you can, please state the reported IC50 value of O=c1/c(=C\c2cc(Br)cc(I)c2O)sc2nc3ccccc3n12 [compound 1] .
32
